The measured values listed here are drawn from the supplement of paper PMC10037445.

# Tested on: RAW-Dual
# method description: NF-kB SEAP reporter activity, fold change vs agonist alone; cytotoxicity flag (confluency mask): not cytotoxic; higher = enhanced NF-kB activity
# test parameters: agonist: LPS (TLR4) 0.1 ug/mL
The full ranking holds about 2,900 compounds; the median of “NF-kB SEAP reporter activity, fold change vs agonist alone” is about 0.99, and the highest 2% start at about 2.6. This is one part of a sample in which the highest values are shown more often than they occur.
NF-kB SEAP reporter activity of 1 or higher: 1.0. Under 1: 0.0.

Solved entries:
compound	label
CC(Nc1nc(NC(C)C(F)(F)F)nc(-c2cccc(Cl)n2)n1)C(F)(F)F (configuration not stated) (library stock concentration (final ~1000-fold dilution): 10 mM)	1.0
CC(C)(C)C1NC(=O)OC2CCCC2OC/C=C/C(F)(F)c2nc3ccccc3nc2OC2CC(C(=O)NC3(C(=O)NS(=O)(=O)C4(C)CC4)CC3C(F)F)N(C2)C1=O (configuration not stated) (library stock concentration (final ~1000-fold dilution): 10 mM)	1.0
CNCCN(C)Cc1c[nH]nc1-c1ccc(OC2CC(OCCC3CCOCC3)C2)cc1.Cl.Cl (configuration not stated) (library stock concentration (final ~1000-fold dilution): 10 mM)	0.0
O=C(Cn1nnc(-c2ccncc2)c1-c1ccccc1)Nc1ccc(-c2ccccc2)cn1 (library stock concentration (final ~1000-fold dilution): 10 mM)	1.0
CC1CN(CC(Cc2ccccc2)C(=O)NCC(=O)O)CCC1(C)c1cccc(O)c1 (configuration not stated) (library stock concentration (final ~1000-fold dilution): 10 mM)	1.0
CN1C(=N)NC(C)(c2cc(NC(=O)c3ccc(F)cn3)ccc2F)CS1(=O)=O.O=C(O)C(F)(F)F (configuration not stated) (library stock concentration (final ~1000-fold dilution): 10 mM)	0.0

Request: Quick check: does C/C(=N\NC(=O)c1cccc(S(=O)(=O)N2CCOCC2)c1)c1cc(Cl)ccc1O (library stock concentration (final ~1000-fold dilution): 10 mM) have NF-kB SEAP reporter activity greater than or equal to 1?
Response: 1.0

Request: Lookup N=C(N)NCCCC1NC(=O)C(CCCCN)NC(=O)C(Cc2ccccc2)NC(=O)C(CC(=O)O)NC(=O)CNC1=O.O=C(O)C(F)(F)F (configuration not stated) (library stock concentration (final ~1000-fold dilution): 10 mM)
Response: 1.0

Request: Lookup CS(=O)(=O)O.O=C(OC1CC2CC3CC(C1)N2CC3=O)c1c[nH]c2ccccc12 (configuration not stated) (library stock concentration (final ~1000-fold dilution): 10 mM)
Response: 0.0

Request: Lookup N#Cc1cc(N2CCC(C(=O)N3N=CCC3c3cc(F)cc(F)c3)CC2)ncn1 (configuration not stated) (library stock concentration (final ~1000-fold dilution): 10 mM)
Response: 1.0

Request: Lookup CC(=O)C1CCC2C3CC=C4CC(O)CCC4(C)C3CCC12C (configuration not stated) (library stock concentration (final ~1000-fold dilution): 10 mM)
Response: 1.0

Request: Lookup CCC(=O)OC(OP(=O)(CCCCc1ccccc1)CC(=O)N1CC(C2CCCCC2)CC1C(=O)O)C(C)C (configuration not stated) (library stock concentration (final ~1000-fold dilution): 10 mM water)
Response: 0.0

Request: Lookup CCC(C)n1cc(C)c2c(C(=O)NCc3c(C)cc(C)[nH]c3=O)cc(-c3ccc(N4CCNCC4)nc3)cc21 (configuration not stated) (library stock concentration (final ~1000-fold dilution): 2 mM)
Response: 1.0

Request: Lookup CN1CCc2c(c3ccccc3n2Cc2ccc(C(=O)NO)cc2)C1.Cl (library stock concentration (final ~1000-fold dilution): 10 mM)
Response: 1.0

Request: Lookup CCC(C)SSc1ncc[nH]1 (configuration not stated) (library stock concentration (final ~1000-fold dilution): 10 mM)
Response: 1.0

Request: Lookup c1cncc(-c2c[nH]nn2)c1 (library stock concentration (final ~1000-fold dilution): 10 mM)
Response: 1.0

Request: Lookup CC(NC(=O)CCC(F)(F)F)C(=O)NC1C(=O)N(CCO)c2ncccc2-c2ccccc21 (configuration not stated) (library stock concentration (final ~1000-fold dilution): 10 mM)
Response: 1.0
